- assay system: EGFR L858R/T790M/C797S (Homo sapiens, UniProt P00533, C797S/L858R/T790M)
- Sequence (P00533 25-1210 T790M/C797S/L858R): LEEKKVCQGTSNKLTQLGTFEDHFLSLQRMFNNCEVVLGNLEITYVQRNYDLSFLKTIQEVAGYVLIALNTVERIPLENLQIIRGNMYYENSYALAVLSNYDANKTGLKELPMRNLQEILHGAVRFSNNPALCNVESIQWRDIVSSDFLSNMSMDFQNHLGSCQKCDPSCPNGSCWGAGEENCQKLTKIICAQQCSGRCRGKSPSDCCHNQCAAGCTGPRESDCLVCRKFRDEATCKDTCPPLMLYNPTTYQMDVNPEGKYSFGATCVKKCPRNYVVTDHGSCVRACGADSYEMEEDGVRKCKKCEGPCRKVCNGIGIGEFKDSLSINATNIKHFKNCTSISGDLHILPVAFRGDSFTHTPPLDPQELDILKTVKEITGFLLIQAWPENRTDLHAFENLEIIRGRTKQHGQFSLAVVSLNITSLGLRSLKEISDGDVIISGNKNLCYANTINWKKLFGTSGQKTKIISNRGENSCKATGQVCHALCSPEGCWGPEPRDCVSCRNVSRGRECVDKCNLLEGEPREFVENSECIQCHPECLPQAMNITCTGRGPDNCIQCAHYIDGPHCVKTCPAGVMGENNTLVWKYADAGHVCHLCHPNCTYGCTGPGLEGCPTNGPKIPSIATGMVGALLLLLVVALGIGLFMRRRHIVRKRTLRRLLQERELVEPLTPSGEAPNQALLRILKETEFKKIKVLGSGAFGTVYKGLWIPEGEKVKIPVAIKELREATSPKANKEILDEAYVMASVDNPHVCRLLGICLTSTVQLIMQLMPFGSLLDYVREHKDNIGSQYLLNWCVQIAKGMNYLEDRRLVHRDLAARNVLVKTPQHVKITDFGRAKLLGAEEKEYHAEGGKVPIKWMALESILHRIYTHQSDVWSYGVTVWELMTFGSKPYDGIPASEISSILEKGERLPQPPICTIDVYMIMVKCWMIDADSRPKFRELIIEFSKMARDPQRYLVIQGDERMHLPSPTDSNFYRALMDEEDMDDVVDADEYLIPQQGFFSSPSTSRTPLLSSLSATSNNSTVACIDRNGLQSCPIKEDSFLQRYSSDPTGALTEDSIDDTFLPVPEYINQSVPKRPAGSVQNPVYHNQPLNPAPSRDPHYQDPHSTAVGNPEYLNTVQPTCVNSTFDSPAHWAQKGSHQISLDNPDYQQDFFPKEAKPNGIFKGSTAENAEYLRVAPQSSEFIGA
- test: Biochemical EGFR kinase assay (Lance Ultra TR-FRET), triple mutant L858R/T790M/C797S
- conditions: Km ATP; read-out: IC50 L858R/T790M/C797S (nM) Km ATP
recorded endpoint: IC50 (nM)

Known results for molecules:
C[C@]1(O)CC[C@@H](Nc2cc(Nc3ccnc(-c4cnc5c(c4)CCCO5)n3)ncc2-c2ccn(C(F)F)n2)CC1; 0.04
CC(C)(O)[C@H]1CC[C@@H](Nc2cc(Nc3ccnc(-c4cnn(S(=O)(=O)C5CC5)c4)n3)ncc2-c2ccn(CC(F)F)n2)CC1; 0.2
O=S(=O)(C1CC1)n1cc(-c2nccc(Nc3cc(NC4CCCC(NCCF)C4)c(-c4ccn(C(F)F)n4)cn3)n2)cn1 (stereo not shown); 0.1
O=S(=O)(C1CC1)n1cc(-c2nccc(Nc3cc(NC[C@H]4C[C@H](O)C4)c(-c4ccn(C(F)F)n4)cn3)n2)cn1; 0.2
C[C@]1(O)CC[C@@H](Nc2cc(Nc3ccnc(-c4cnn(S(=O)(=O)C5CC5)c4)n3)ncc2-n2ccc(OC(F)F)n2)CC1; 0.5
Cn1nc(-c2cnc(Nc3nc(-c4cnn(S(=O)(=O)C5CC5)c4)ncc3F)cc2N[C@H]2CC[C@@](C)(O)CC2)cc1C(F)(F)F; 2

a. O=S(=O)(C1CC1)n1cc(-c2nccc(Nc3cc(N[C@H]4CC[C@](O)(CO)CC4)c(-c4csc(N5CCOCC5)n4)cn3)n2)cn1
b. Cc1cnn(-c2cnc(Nc3ccnc(-c4cnn(S(=O)(=O)C5CC5)c4)n3)cc2N[C@H]2CC[C@@](C)(O)CC2)c1
Looking at a and b , which one comes out lower in IC50 terms? # respond with the chosen item's label
b
(b: 0.05 nM, a: 0.4 nM)

a. CN(C)C[C@H]1CC[C@@H](Nc2cc(Nc3ccnc(-c4cnn(S(=O)(=O)C5CC5)c4)n3)ncc2-c2cc(C(F)(F)F)n(C)n2)CC1
b. C[C@]1(O)CC[C@@H](Nc2cc(Nc3ccnc(-c4ccc(F)nc4F)n3)ncc2-c2ccn(C(F)F)n2)CC1
c. O=S(=O)(C1CC1)n1cc(-c2nccc(Nc3cc(NCC4(CO)COC4)c(-c4ccn(C(F)F)n4)cn3)n2)cn1
# sort list by recorded IC50, greatest to least A complete answer lists every label in the requested sequence.
b, a, c

A. CN(C)CC1CCC(Nc2cc(Nc3ccnc(-c4cnn(S(=O)(=O)C5CC5)c4)n3)ncc2-c2ccn(C3COC3)n2)CC1 (stereo not shown)
B. Cn1ccc(-c2cnc(Nc3ccnc(-c4cnn(S(=O)(=O)C5CC5)c4)n3)cc2NC[C@H]2CC[C@](C)(O)CC2)n1
Looking at A and B , which one comes out lower in IC50 terms? # respond with the chosen item's label
A

====

- assay system: EGFR del19/T790M/C797S (Homo sapiens, UniProt P00533, C797S/DEL746-750/T790M)
- Sequence (P00533 with tags, fused parts or gaps DEL746-750/T790M/C797S): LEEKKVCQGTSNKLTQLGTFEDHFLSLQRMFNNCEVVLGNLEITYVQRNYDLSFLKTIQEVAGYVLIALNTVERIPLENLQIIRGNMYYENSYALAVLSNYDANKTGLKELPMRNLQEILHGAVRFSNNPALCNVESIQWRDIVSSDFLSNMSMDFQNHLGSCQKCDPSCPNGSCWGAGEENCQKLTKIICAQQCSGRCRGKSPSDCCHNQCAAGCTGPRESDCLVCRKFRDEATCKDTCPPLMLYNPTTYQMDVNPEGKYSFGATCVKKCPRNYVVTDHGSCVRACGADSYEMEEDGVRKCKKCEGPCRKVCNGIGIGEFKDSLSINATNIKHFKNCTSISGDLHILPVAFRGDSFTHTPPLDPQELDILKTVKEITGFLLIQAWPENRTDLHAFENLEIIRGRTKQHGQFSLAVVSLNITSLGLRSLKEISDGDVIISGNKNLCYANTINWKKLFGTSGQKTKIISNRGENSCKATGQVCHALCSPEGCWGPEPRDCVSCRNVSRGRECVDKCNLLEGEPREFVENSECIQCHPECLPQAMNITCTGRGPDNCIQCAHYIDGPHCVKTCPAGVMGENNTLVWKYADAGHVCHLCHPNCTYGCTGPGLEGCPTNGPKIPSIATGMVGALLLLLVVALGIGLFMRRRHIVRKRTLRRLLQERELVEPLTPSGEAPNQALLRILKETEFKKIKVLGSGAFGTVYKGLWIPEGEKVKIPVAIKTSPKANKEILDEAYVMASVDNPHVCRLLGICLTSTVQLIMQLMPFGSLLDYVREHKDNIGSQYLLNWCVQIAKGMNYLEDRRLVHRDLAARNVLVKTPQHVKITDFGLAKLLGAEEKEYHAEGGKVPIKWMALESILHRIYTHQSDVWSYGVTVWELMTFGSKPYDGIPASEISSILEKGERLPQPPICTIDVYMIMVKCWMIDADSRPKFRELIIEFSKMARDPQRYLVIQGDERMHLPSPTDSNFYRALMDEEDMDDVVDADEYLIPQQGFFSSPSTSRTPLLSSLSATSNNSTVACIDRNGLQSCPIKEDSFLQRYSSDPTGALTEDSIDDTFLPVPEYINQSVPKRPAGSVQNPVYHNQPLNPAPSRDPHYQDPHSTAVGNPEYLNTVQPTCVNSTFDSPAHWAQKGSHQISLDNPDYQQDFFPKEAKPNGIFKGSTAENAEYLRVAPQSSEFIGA
- test: Biochemical EGFR kinase assay (Lance Ultra TR-FRET), triple mutant del19/T790M/C797S
- conditions: Km ATP; read-out: IC50 del19/T790M/C797S (nM) Km ATP
recorded endpoint: IC50 (nM)

Known results for molecules:
Cn1ccc(-c2cnc(Nc3ccnc(-c4cnn(S(=O)(=O)C5CC5)c4)n3)cc2N[C@H]2CC[C@@H](NCCF)CC2)n1; 0.2
CN(C)C(=O)C[C@H]1CC[C@@H](Nc2cc(Nc3ccnc(-c4cnn(S(=O)(=O)C5CC5)c4)n3)ncc2-c2ccn(C(F)F)n2)CC1; 0.3
CN(C)CC1(C)CCC(Nc2cc(Nc3ccnc(-c4cnn(S(=O)(=O)C5CC5)c4)n3)ncc2-c2ccn(CC(F)(F)F)n2)CC1 (stereo not shown); 0.2
Cn1nc(-c2cnc(Nc3nc(-c4cnn(S(=O)(=O)C5CC5)c4)ncc3F)cc2N[C@H]2CC[C@@](C)(O)CC2)cc1C(F)(F)F; 4.8
O=S(=O)(C1CC1)n1cc(-c2nccc(Nc3cc(N[C@@H]4CCC[C@H](O)C4)c(-c4csc(C(F)(F)F)n4)cn3)n2)cn1; 2.7
Cc1cnn(-c2cnc(Nc3ccnc(-c4cnn(S(=O)(=O)C5CC5)c4)n3)cc2N[C@H]2CC[C@@](C)(O)CC2)c1; 0.1
O=S(=O)(C1CC1)n1cc(-c2nccc(Nc3cc(NC4CCN(CCF)CC4)c(-c4ccn(C(F)F)n4)cn3)n2)cn1; 0.2
CC(C)Nc1cc(Nc2ccnc(-c3cnn(S(=O)(=O)C4CC4)c3)n2)ncc1-c1ccn(CC(F)F)n1; 0.5

1. CN(C)C[C@H]1CC[C@@H](Nc2cc(Nc3ccnc(-c4cnn(S(=O)(=O)C5CC5)c4)n3)ncc2-c2ccn(C)n2)CC1
2. C[C@]1(O)CC[C@@H](Nc2cc(Nc3ccnc(Nc4ccnn4CC(F)F)n3)ncc2-c2ccn(C(F)F)n2)CC1
3. COCn1ccc(-c2cnc(Nc3ccnc(-c4cnn(S(=O)(=O)C5CC5)c4)n3)cc2NC(C)C)n1
4. O=S(=O)(C1CC1)n1cc(-c2nccc(Nc3cc(N[C@H]4CC[C@@H](CO)CC4)c(-c4ccn(CC(F)F)n4)cn3)n2)cn1
5. CN1CCC(n2ccc(-c3cnc(Nc4ccnc(-c5cnn(S(=O)(=O)C6CC6)c5)n4)cc3N[C@H]3CC[C@@](C)(O)CC3)n2)CC1
Would you mind ranking these molecules by ascending IC50? A complete answer lists every label in the requested sequence.
1, 5, 4, 3, 2
(1: 0.1 nM, 5: 0.2 nM, 4: 0.3 nM, 3: 0.6 nM, 2: 4.2 nM)
